Data credit: the supplement of paper PMC12764529

Listing of entries alongside the reported folding stability dG unfold.
# Experiment Description: folding stability dG unfold (combined trypsin and chymotrypsin); higher = more stable
I only need the number, in kcal/mol, no unit after it.

Use the examples below as a reference point.
{"Sequence Record": "SAGSSSTTIEVPVGDPAKAGSVEEYKEKLIKEGFSESDVPTATPLPDGTRLVTFKSPSTTVTLVVPLGESAG [r5_144_JUSTAS]", "folding stability dG unfold (kcal/mol)": -0.846}
{"Sequence Record": "SAGGSAGGSAGKKKKKPKKKYVFIVIKINLSEEELKKLAEELGIDKVFKNENGYAVLVVKSAGGSAGGSAGG [r11_64_TrROS_Hall]", "folding stability dG unfold (kcal/mol)": 3.15}
{"Sequence Record": "SAGGEIAKRFAKYARDAGYDVRVDVEIIPPDEFPGLKPGKPYVIKVEIEVTPPNGPRRPLGEFTIMINSAGG [r13_874_TrROS]", "folding stability dG unfold (kcal/mol)": 2.82}

q: Using the record for SAGGFKITEVEKDEKKGYPWVSIRIPPKSTLKKLKNMPGPVRIHNPEPGQWIHMPVDDPEEFLDKLLKSAGG [r13_604_TrROS] , report its folding stability dG unfold.
a: -0.516

q: Next up: SAPMTPAERARPRIKKLVNLLAEDGNFKVDIERDPGDPGVVVTIKLDPNSREKFAERLGIPRDELYDLISAG [r14_688_TrROS]
a: -0.373

q: Next up: SKKPDYVILIEIEVEKNENGEKTIKKKIIIYDKNGKKKLIAEEEITIEVNGIKIKIKIKIFPKGASLEELSA [r9_1113_TrROS_Hall]
a: 2.87

* * *

Listing of entries alongside the reported folding stability dG unfold.
# Experiment Description: folding stability dG unfold (combined trypsin and chymotrypsin); higher = more stable
I only need the number, in kcal/mol, no unit after it.

Use the examples below as a reference point.
{"Sequence Record": "SAGGSAGGSNMPIKNVELHPLPNGWYLIKIRYGGKTRTFLFPPGAPFEIPLPPGMEIDIYPLNSAGGSAGGS [r12_373_TrROS]", "Measurement Label": "folding stability dG unfold", "Uom": "kcal/mol", "Val": 3.84}
{"Sequence Record": "SAGGSAGGSAGNWKIKNIEPVRLPNNVHIMKFQIPGRSLIFVFDPKNGQKRWIPLKDIKPSAGGSAGGSAGG [r17_286_TrROS]", "Measurement Label": "folding stability dG unfold", "Uom": "kcal/mol", "Val": -0.0705}
{"Sequence Record": "SKTVEIPIRNPNGMQVNIMANPEKGKVMIHMGNNMPFENIKKALRELLPPGKDVDITTHPNGMAVIELKPSA [r9_933_TrROS]", "Measurement Label": "folding stability dG unfold", "Uom": "kcal/mol", "Val": -0.734}
{"Sequence Record": "SAAPGAEVIEEKEIEVGGYTVTIVYNKDTDTVTIFVRNPDGTITEFTIDADTLEITEVREIKLPPGVELSAG [r14_676_TrROS_Hall]", "Measurement Label": "folding stability dG unfold", "Uom": "kcal/mol", "Val": 3}
{"Sequence Record": "SAGGKKIKITVKELKKKLEEEGYEIEEIEIYNKKTGKKIKTIKEGDVIELPENVKNVVIKVKIKKKKSAGGS [r8_243_TrROS_Hall]", "Measurement Label": "folding stability dG unfold", "Uom": "kcal/mol", "Val": 2.57}
{"Sequence Record": "GFEVTAEIEVYEDPESGAKVVKVTIPVKNGDPEVLEKAAKELAKKLFGPGAKFDPKIDPETGRVEVTGVLAS [r1_273_TrMRF]", "Measurement Label": "folding stability dG unfold", "Uom": "kcal/mol", "Val": 1.38}
{"Sequence Record": "SAGGSAGGSAGGEEPVTFMVRIPIRRRDPDGNPEPVAEIDINVTMPPEDAERIIKELIKSAGGSAGGSAGGS [r10_574_TrROS]", "Measurement Label": "folding stability dG unfold", "Uom": "kcal/mol", "Val": -0.326}
{"Sequence Record": "SAGGKTIVIELTPEEVEELLKKLLEELKKKAEENPDAKITIVITTPDGRTYTITIDLKTGKITIEELPSAGG [r13_216_TrROS_Hall]", "Measurement Label": "folding stability dG unfold", "Uom": "kcal/mol", "Val": 3.43}

q: Using the record for SAGGSAGGMVKVYPIDPNTPPEAVVARLEKEFPDRPIKSVSVSTVGDVPVVTITFPDGLKVVVSSAGGSAGG [r6_492_JUSTAS] , report its folding stability dG unfold.
a: 1.23

q: Next up: SAGAPLEVPGPLVTVTEEEVPGKPLVFIPTPDGLIVVDLVTGKAERYPLYSEEPIVLDVPPGVVIELPSAGG [r19_138_JUSTAS]
a: 0.819

* * *

# Experiment Description: folding stability dG unfold from trypsin proteolysis; higher = more stable
Response key: MET means folding stability dG unfold >= 0.9 kcal/mol; NOT MET means folding stability dG unfold < 0.9 kcal/mol.

{"Sequence Record": "SAMEVKIEKVEVKDGTVRITVTVKVSEEQLEKVKELAEKLKEKGYEVKVVKVEKLEDGTIKVEIEVKPKSAG [r14_354_TrROS_Hall]", "Group": "MET"}
{"Sequence Record": "SAGGSAGGSAKPNKKFKFELVEVKEIEIYDKETNEKVYKISVAKVRLEDGSLLTFISIEEKSAGGSAGGSAG [r3_166_TrROS_Hall]", "Group": "MET"}
{"Sequence Record": "SAGGSAGGSAGKKYKVVEVKENKDGTVELVVENENGEKKKITLSKEELDKLKAGDTVELKSAGGSAGGSAGG [r11_943_TrROS_Hall]", "Group": "MET"}
{"Sequence Record": "SIEVEKTPDGKFEIENDNGWKVEIEVFPGMIEIKIKPVKVYVPDGKWFETPEEAEKMQEKNGVPITEDDLSA [r9_660_TrROS]", "Group": "NOT MET"}
{"Sequence Record": "SAGGSAGGSLNPEKPSVRIRIKVQKPDGSYEEIDIEVPFQDIPDVIDELKKKGYKILSIELEPSAGGSAGGS [r12_986_TrMRF]", "Group": "MET"}

q: Record SAGGSAGGSAGGMEIIEKEETLDEETLKKLEEEGVPKSEATVKVTEVIYKEEYPEEGLKSAGGSAGGSAGGS [r10_1149_JUSTAS] ; criterion: folding stability dG unfold no lower than 0.9 kcal/mol. Met?
a: NOT MET

q: Next up: SAGGSAIWIPVDEIRDLLKEFGIDVTVERHPNDGWVEIEIKMRRPNGKKHPIKIWVHPDGYIRIEPSAGGSA [r15_1051_TrROS]
a: MET

q: Next up: SAGGSAGGKVTVDPAKVKAILTLKDGSKLIVLEDGVLLYNPKTEKVTLVSLSDLKKLPEDAPVPSAGGSAGG [r6_889_TrMRF]
a: MET

q: Next up: SKEILEAEVEEILKLLPESLKPDVPRELVFPGVKITVTKYEPVDKNKGGKKPTTVVTIELPEGPVTIPLPSA [r9_279_JUSTAS]
a: NOT MET

q: Next up: SAGGSMSIPLKTEEDVKKAVEYIKQKLLEEGAPEGLKIDKVEVTKLPDGTYKITITFPNKTFELVGSAGGSA [r2_120_JUSTAS]
a: MET

q: Next up: SAGGSAGGSAGGGKLRIKLYHPETGKISEIEVEVPDKPLEEVLEELEKELGVEVVDASLESAGGSAGGSAGG [r7_590_TrMRF]
a: MET

q: Next up: SAGKIKPGQKIKIKITSIEKLKDGTIKIKAEIELEEKGYKITIEAEIKYDKKTKKLTIKVKIKIEPKPSAGG [r19_342_TrROS_Hall]
a: MET

q: Next up: SAGGSAGGSAAEASVVTFPGDLTAEVTKLPDGSYAVTVTFPENPGATATLTRTPDSVTVTPSAGGSAGGSAG [r3_170_JUSTAS]
a: NOT MET

q: Next up: SAGGMEIKIEKEGNKIKITIKNENGEIEEFEITLKDGKKYRIIIDKDNPNTIYIVDEKTGKTIVLKASAGGS [r16_198_TrROS_Hall]
a: MET

* * *

# Experiment Description: folding stability dG unfold from chymotrypsin proteolysis; higher = more stable
Listing of entries alongside the reported folding stability dG unfold.
I only need the number, in kcal/mol, no unit after it.

{"Sequence Record": "SAGGSAGGSAGMKKVLIIGGPKEELAKELKEKSPDIEVEFLDPSEDLEEYKKKFDIVIIESAGGSAGGSAGG [r17_225_JUSTAS]", "Uom": "kcal/mol", "folding stability dG unfold": 0.255}
{"Sequence Record": "SAGGGMLLTTTQTITLPNGTLLTVTSTFTLTPPAVPVPVVELDESSIAEYDPATGILTDPSVPTPIPVPSAG [r5_807_JUSTAS]", "Uom": "kcal/mol", "folding stability dG unfold": 0.596}
{"Sequence Record": "SAGSMEALRALAEELAAEIAAAARAAGREVEVDITEVRPGEVRIRVTTTPPGGERTVEDIEIALPEERLSAG [r5_994_JUSTAS]", "Uom": "kcal/mol", "folding stability dG unfold": 1.82}

Turning now to a further sequence:
q: Using the record for SAGGSAMLVIEIEVDGKKVTLVIEVPPEMTEEEIRELAEELAERLRALPGVKEVKVKIERVPPPPESAGGSA [r15_246_TrROS_Hall] , report its folding stability dG unfold.
a: 3.56
